ENDPOINT_LABEL: Ki (nM)
Report as a plain number; the unit nM is understood.

# COc1cc2c(cc1OC)CN(CCc1ccc(NC(=O)c3cc(OC)c(OC)cc3NC(=O)c3cnc4ccccc4c3)cc1)CC2 [tariquidar] with human Pgp (Homo sapiens): Ki is 8.5
